Origin of measurements: patent US10208089B2

assay: Compound stability in human plasma; format: in vitro ADME; conditions: plasma (collected in sodium heparin), pH 7.4, 37° C., 10 μM, 24 hrs, read-out: Percent remaining at time (hrs): 24 hrs
Starred links: 1 amine or outer side, 2 acyl side, 3 side chain; linkers in the order of their positions; H or OH if unused. Positions of bridges follow the written chain, without caps; N, C: chain ends. Non-standard residues stand in square brackets, D forms with d. Residues, ends and D or L forms follow the SMILES beside them. Trp(7-aza) = N[C@@H](Cc1c[nH]c2ncccc12)C(=O)O; pXylylene = c1cc(C[*:2])ccc1C[*:1]; Phg = N[C@H](C(=O)O)c1ccccc1; NMeS = CN[C@@H](CO)C(=O)O; Nva = CCC[C@H](N)C(=O)O

>  <molecule>
CCC[C@H](NC(=O)[C@@H]1CSCc2ccc(cc2)CSC[C@H](NC(=O)[C@H](CCC)NC(C)=O)C(=O)N[C@@H](c2ccccc2)C(=O)N[C@@H]([C@@H](C)O)C(=O)N[C@@H](Cc2c[nH]c3ncccc23)C(=O)N[C@@H](CCC(=O)O)C(=O)N[C@@H](Cc2ccc(O)cc2)C(=O)N(C)[C@@H](CO)C(=O)N[C@@H](Cc2c[nH]cn2)C(=O)N1)C(N)=O [Compound R3050] (Ac-[Nva]C[Phg]T[Trp(7-aza)]EY[NMeS]HC[Nva]-NH2; linker 2-10 via pXylylene)

>  <unitSymbol>
%

>  <remaining at 24 h, 10 μM>
98.1

$$$$

====

molecular target: C5 (Homo sapiens, UniProt P01031); assay: Human hemolysis assay (RBC lysis assay using complete human sera); format: cell-based; design: with complete human sera (Complement Technology, Tyler Tex.) and polypeptides; tissue Complement Technology, Tyler Tex; host or cells: complete human serum; conditions: inhibition of lysis of antibody-sensitized sheep erythrocytes, complete human sera
Sequence (P01031 19-1676): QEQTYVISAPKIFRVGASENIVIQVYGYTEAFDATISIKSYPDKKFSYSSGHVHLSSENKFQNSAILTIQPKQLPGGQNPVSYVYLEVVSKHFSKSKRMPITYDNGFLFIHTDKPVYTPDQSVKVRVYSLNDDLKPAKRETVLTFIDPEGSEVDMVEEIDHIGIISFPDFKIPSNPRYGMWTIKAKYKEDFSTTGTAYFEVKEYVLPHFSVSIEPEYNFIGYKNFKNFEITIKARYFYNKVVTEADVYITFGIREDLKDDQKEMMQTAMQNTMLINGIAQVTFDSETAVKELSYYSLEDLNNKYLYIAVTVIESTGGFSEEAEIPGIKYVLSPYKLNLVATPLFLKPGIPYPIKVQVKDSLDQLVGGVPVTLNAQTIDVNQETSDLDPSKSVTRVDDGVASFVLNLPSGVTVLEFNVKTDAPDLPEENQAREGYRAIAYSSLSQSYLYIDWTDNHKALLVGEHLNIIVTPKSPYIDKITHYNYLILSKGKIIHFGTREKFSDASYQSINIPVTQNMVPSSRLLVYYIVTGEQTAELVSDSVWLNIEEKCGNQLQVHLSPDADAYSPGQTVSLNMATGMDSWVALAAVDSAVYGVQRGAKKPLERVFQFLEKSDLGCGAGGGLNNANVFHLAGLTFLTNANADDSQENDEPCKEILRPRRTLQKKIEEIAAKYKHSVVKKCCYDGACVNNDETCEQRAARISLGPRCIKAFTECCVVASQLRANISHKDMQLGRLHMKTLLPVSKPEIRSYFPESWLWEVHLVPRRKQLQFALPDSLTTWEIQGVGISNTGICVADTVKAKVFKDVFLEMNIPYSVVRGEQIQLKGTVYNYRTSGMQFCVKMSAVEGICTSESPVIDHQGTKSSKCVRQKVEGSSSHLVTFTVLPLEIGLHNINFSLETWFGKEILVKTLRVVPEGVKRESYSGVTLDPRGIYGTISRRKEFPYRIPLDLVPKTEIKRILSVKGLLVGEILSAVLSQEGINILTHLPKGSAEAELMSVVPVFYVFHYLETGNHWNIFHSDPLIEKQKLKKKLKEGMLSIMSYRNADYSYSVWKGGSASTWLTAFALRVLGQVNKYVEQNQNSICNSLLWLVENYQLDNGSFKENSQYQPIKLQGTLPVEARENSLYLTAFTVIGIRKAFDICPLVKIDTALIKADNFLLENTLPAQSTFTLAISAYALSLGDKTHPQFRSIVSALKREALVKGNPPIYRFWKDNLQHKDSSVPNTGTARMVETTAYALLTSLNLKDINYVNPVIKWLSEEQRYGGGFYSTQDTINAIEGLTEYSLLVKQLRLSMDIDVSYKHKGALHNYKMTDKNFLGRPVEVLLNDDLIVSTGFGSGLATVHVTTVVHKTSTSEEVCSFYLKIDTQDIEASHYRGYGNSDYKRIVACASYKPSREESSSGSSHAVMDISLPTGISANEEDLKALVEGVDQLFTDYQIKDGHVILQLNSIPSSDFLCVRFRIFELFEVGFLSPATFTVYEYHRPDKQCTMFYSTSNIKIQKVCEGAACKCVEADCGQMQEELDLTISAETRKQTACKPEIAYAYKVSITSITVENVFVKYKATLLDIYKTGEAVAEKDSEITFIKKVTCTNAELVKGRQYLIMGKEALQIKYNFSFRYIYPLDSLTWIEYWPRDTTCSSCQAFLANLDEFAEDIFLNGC
Starred links: 1 amine or outer side, 2 acyl side, 3 side chain; linkers in the order of their positions; H or OH if unused. Positions of bridges follow the written chain, without caps; N, C: chain ends. Non-standard residues stand in square brackets, D forms with d. Residues, ends and D or L forms follow the SMILES beside them. Trp(7-aza) = N[C@@H](Cc1c[nH]c2ncccc12)C(=O)O; NMePhe(4-F) = CN[C@@H](Cc1ccc(F)cc1)C(=O)O; Phe(3-Cl) = N[C@@H](Cc1cccc(Cl)c1)C(=O)O; mXylylene = c1cc(C[*:1])cc(C[*:2])c1; pXylylene = c1cc(C[*:2])ccc1C[*:1]; Phg = N[C@H](C(=O)O)c1ccccc1; Tle = CC(C)(C)[C@H](N)C(=O)O; NMeS = CN[C@@H](CO)C(=O)O; Nva = CCC[C@H](N)C(=O)O
IC50 listing for selected compounds.
endpointName: IC50

>  <compound>
CCC[C@H](NC(=O)[C@@H]1CSCc2ccc(cc2)CSC[C@H](NC(=O)[C@H](CCC)NC(C)=O)C(=O)N[C@@H](c2ccccc2)C(=O)N[C@@H]([C@@H](C)O)C(=O)N[C@@H](Cc2c[nH]c3ncccc23)C(=O)N[C@@H](CCC(=O)O)C(=O)N[C@@H](Cc2ccc(O)cc2)C(=O)N(C)[C@@H](CO)C(=O)N[C@@H](Cc2c[nH]cn2)C(=O)N1)C(N)=O [Compound R3050] (Ac-[Nva]C[Phg]T[Trp(7-aza)]EY[NMeS]HC[Nva]-NH2; linker 2-10 via pXylylene)

>  <reportedMeasurement>
0.0429 µM

$$$$
>  <compound>
CCC[C@H](NC(C)=O)C(=O)N[C@H]1CSCc2cccc(c2)CSC[C@@H](C(=O)N[C@@H](CCC(=O)O)C(=O)N[C@@H](Cc2ccc(O)cc2)C(=O)N2CCC[C@H]2C(=O)N[C@H](C(=O)N[C@H](C(N)=O)C(C)(C)C)c2ccccc2)NC(=O)[C@H](CCC(=O)O)NC(=O)[C@H](C(C)(C)C)NC(=O)[C@H](CC(N)=O)NC(=O)[C@H](CC(N)=O)NC(=O)[C@H](Cc2ccc(O)cc2)NC1=O [Compound R3129] (Ac-[Nva]CYNN[Tle]ECEYP[Phg][Tle]-NH2; linker 2-8 via mXylylene)

>  <reportedMeasurement>
> 100 µM

$$$$
>  <compound>
CCC[C@H](N)C(=O)N[C@H]1CSCc2cccc(c2)CSC[C@@H](C(N)=O)NC(=O)CNC(=O)[C@H](Cc2ccc(F)cc2)N(C)C(=O)[C@H](Cc2c[nH]cn2)NC(=O)[C@H](CO)N(C)C(=O)[C@H](Cc2ccc(F)cc2)N(C)C(=O)[C@H](c2ccccc2)NC(=O)[C@H](CO)N(C)C(=O)[C@H](Cc2ccc(O)cc2)NC1=O [Compound R3075] (H-[Nva]CY[NMeS][Phg][NMePhe(4-F)][NMeS]H[NMePhe(4-F)]GC-NH2; linker 2-11 via mXylylene)

>  <reportedMeasurement>
> 75 µM

$$$$
>  <compound>
CC(=O)N[C@H]1CSCc2cccc(c2)CSC[C@@H](C(=O)N[C@@H](CC(=O)O)C(=O)N[C@H](C(=O)N[C@@H](Cc2ccc(O)cc2)C(=O)N[C@@H](Cc2c[nH]c3ccccc23)C(=O)N[C@@H](CCC(=O)O)C(=O)N[C@@H](Cc2ccccc2)C(N)=O)C(C)C)NC(=O)[C@H](Cc2ccccc2)NC(=O)[C@H](CCCNC(=N)N)NC(=O)[C@H](CCC(=O)O)NC(=O)[C@H](C(C)(C)C)NC1=O [Compound R3146] (Ac-C[Tle]ERFCDVYWEF-NH2; linker 1-6 via mXylylene)

>  <reportedMeasurement>
0.107 µM

$$$$
>  <compound>
CCC[C@H](NC(=O)[C@@H]1CSCc2cccc(c2)CSC[C@H](NC(=O)[C@H](CCC)NC(C)=O)C(=O)N[C@@H](c2ccccc2)C(=O)N[C@@H]([C@@H](C)O)C(=O)N[C@@H](Cc2c[nH]c3ncccc23)C(=O)N[C@@H](CCC(=O)O)C(=O)N[C@@H](Cc2cccc(Cl)c2)C(=O)N(C)[C@@H](CO)C(=O)N[C@@H](C)C(=O)N1)C(N)=O [Compound R3134] (Ac-[Nva]C[Phg]T[Trp(7-aza)]E[Phe(3-Cl)][NMeS]AC[Nva]-NH2; linker 2-10 via mXylylene)

>  <reportedMeasurement>
> 5 µM

$$$$
>  <compound>
CCC[C@H](NC(C)=O)C(=O)N[C@@H](CS)C(=O)N[C@@H](Cc1ccc(O)cc1)C(=O)N[C@@H](CC(N)=O)C(=O)N[C@@H](CC(N)=O)C(=O)N[C@H](C(=O)N[C@@H](CCC(=O)O)C(=O)N[C@@H](CS)C(=O)N[C@@H](CCC(=O)O)C(=O)N[C@@H](Cc1ccc(O)cc1)C(=O)N1CCC[C@H]1C(=O)N[C@H](C(=O)N[C@H](C(N)=O)C(C)(C)C)c1ccccc1)C(C)(C)C [Compound R3128, Ac-Nvl-C-Y-N-N-Tbg-E-C-E-Y-P-Phg-Tbg-NH2] (Ac-[Nva]CYNN[Tle]ECEYP[Phg][Tle]-NH2)

>  <reportedMeasurement>
> 100 µM

$$$$
>  <compound>
CCC[C@H](NC(=O)[C@@H]1CSCc2cccc(c2)CSC[C@H](NC(=O)[C@H](CCC)NC(C)=O)C(=O)N[C@@H](c2ccccc2)C(=O)N[C@@H]([C@@H](C)O)C(=O)N[C@@H](Cc2c[nH]c3ncccc23)C(=O)N[C@@H](CCC(=O)O)C(=O)N[C@@H](Cc2ccc(O)cc2)C(=O)N(C)[C@@H](CO)C(=O)N1)C(N)=O [Compound R3080] (Ac-[Nva]C[Phg]T[Trp(7-aza)]EY[NMeS]C[Nva]-NH2; linker 2-9 via mXylylene)

>  <reportedMeasurement>
> 50 µM

$$$$
>  <compound>
CSCC[C@H](N)C(=O)N[C@H]1CSCc2cccc(c2)CSC[C@@H](C(N)=O)NC(=O)[C@H](Cc2ccccc2)NC(=O)[C@H](CCCNC(=N)N)NC(=O)[C@H](CCC(=O)O)NC(=O)[C@H](C(C)C)NC1=O [Compound R3047, [mXylyl(2,7)]M-C-V-E-R-F-C-NH2] (H-MCVERFC-NH2; linker 2-7 via mXylylene)

>  <reportedMeasurement>
> 100 µM

$$$$
>  <compound>
CSCC[C@H](N)C(=O)N[C@H]1CSCc2cccc(c2)CSC[C@@H](C(=O)N[C@@H](CC(=O)O)C(=O)N[C@H](C(N)=O)C(C)C)NC(=O)[C@H](Cc2ccccc2)NC(=O)[C@H](CCCNC(=N)N)NC(=O)[C@H](CCC(=O)O)NC(=O)[C@H](C(C)C)NC1=O [Compound R3046, [mXylyl(2,7)]M-C-V-E-R-F-C-D-V-NH2] (H-MCVERFCDV-NH2; linker 2-7 via mXylylene)

>  <reportedMeasurement>
> 100 µM

$$$$

====

target: C5 (Homo sapiens); experiment: Competitive fluorescence polarization assay with probe R3076; type: binding; design: purchased Complement Technology, Tyler, Tex; conditions: average of Exp 1 and Exp 2; read-out: Avg, nM IC50
Starred links: 1 amine or outer side, 2 acyl side, 3 side chain; linkers in the order of their positions; H or OH if unused. Positions of bridges follow the written chain, without caps; N, C: chain ends. Non-standard residues stand in square brackets, D forms with d. Residues, ends and D or L forms follow the SMILES beside them. Trp(7-aza) = N[C@@H](Cc1c[nH]c2ncccc12)C(=O)O; mXylylene = c1cc(C[*:1])cc(C[*:2])c1; pXylylene = c1cc(C[*:2])ccc1C[*:1]; Phg = N[C@H](C(=O)O)c1ccccc1; Tle = CC(C)(C)[C@H](N)C(=O)O; NMeS = CN[C@@H](CO)C(=O)O; Nva = CCC[C@H](N)C(=O)O
Response field label: string, one of criterion met (IC50 strictly below 300 nM) or criterion not met.

>  <compound>
CCC[C@H](NC(=O)[C@@H]1CSCc2ccc(cc2)CSC[C@H](NC(=O)[C@H](CCC)NC(C)=O)C(=O)N[C@@H](c2ccccc2)C(=O)N[C@@H]([C@@H](C)O)C(=O)N[C@@H](Cc2c[nH]c3ncccc23)C(=O)N[C@@H](CCC(=O)O)C(=O)N[C@@H](Cc2ccc(O)cc2)C(=O)N(C)[C@@H](CO)C(=O)N[C@@H](Cc2c[nH]cn2)C(=O)N1)C(N)=O [Compound R3050] (Ac-[Nva]C[Phg]T[Trp(7-aza)]EY[NMeS]HC[Nva]-NH2; linker 2-10 via pXylylene)

>  <testedSystem>
C5 (Homo sapiens)

>  <className>
criterion met

$$$$
>  <compound>
CCC[C@H](NC(C)=O)C(=O)N[C@H]1CSCc2cccc(c2)CSC[C@@H](C(=O)N[C@@H](CCC)C(=O)N2CCC[C@H]2C(N)=O)NC(=O)[C@H](Cc2c[nH]cn2)NC(=O)[C@H](CO)N(C)C(=O)[C@H](Cc2ccc(O)cc2)NC(=O)[C@H](CCC(=O)O)NC(=O)[C@H](Cc2c[nH]c3ncccc23)NC(=O)[C@H]([C@@H](C)O)NC(=O)[C@H](c2ccccc2)NC1=O [Compound R3011] (Ac-[Nva]C[Phg]T[Trp(7-aza)]EY[NMeS]HC[Nva]P-NH2; linker 2-10 via mXylylene)

>  <testedSystem>
C5 (Homo sapiens)

>  <className>
criterion met

$$$$
>  <compound>
CSCC[C@H](N)C(=O)N[C@H]1CSCc2cccc(c2)CSC[C@@H](C(=O)N[C@@H](CC(=O)O)C(=O)N[C@H](C(=O)N[C@@H](Cc2ccc(O)cc2)C(=O)N[C@@H](Cc2c[nH]c3ccccc23)C(=O)N[C@@H](CCC(=O)O)C(N)=O)C(C)C)NC(=O)[C@H](Cc2ccccc2)NC(=O)[C@H](CCCNC(=N)N)NC(=O)[C@H](CCC(=O)O)NC(=O)[C@H](C(C)C)NC1=O [Compound R3043, [mXylyl(2,7)]M-C-V-E-R-F-C-D-V-Y-W-E-NE2] (H-MCVERFCDVYWE-NH2; linker 2-7 via mXylylene)

>  <testedSystem>
C5 (Homo sapiens)

>  <className>
criterion not met

$$$$
>  <compound>
CCC[C@H](NC(=O)[C@@H]1CCCN1C(=O)[C@H](CCC)NC(=O)[C@@H]1CSCc2cccc(c2)CSC[C@H](NC(C)=O)C(=O)N[C@@H](c2ccccc2)C(=O)N[C@@H]([C@@H](C)O)C(=O)N[C@@H](Cc2c[nH]c3ncccc23)C(=O)N[C@@H](CCC(=O)O)C(=O)N[C@@H](Cc2ccc(O)cc2)C(=O)N(C)[C@@H](CO)C(=O)N[C@@H](Cc2c[nH]cn2)C(=O)N1)C(N)=O [Compound R3014] (Ac-C[Phg]T[Trp(7-aza)]EY[NMeS]HC[Nva]P[Nva]-NH2; linker 1-9 via mXylylene)

>  <testedSystem>
C5 (Homo sapiens)

>  <className>
criterion not met

$$$$
>  <compound>
CCC[C@H](NC(=O)[C@H](Cc1ccc(O)cc1)NC(=O)[C@H](CC(N)=O)NC(=O)[C@H](CCC)NC(=O)[C@H](CCC(=O)O)NC(=O)[C@@H](NC(=O)[C@H](Cc1c[nH]c2ncccc12)NC(=O)[C@@H](NC(=O)[C@H](CS)NC(=O)[C@H](Cc1ccc(O)cc1)NC(=O)[C@@H]1CCCN1C(=O)[C@H](Cc1ccc(O)cc1)NC(C)=O)c1ccccc1)C(C)(C)C)C(=O)N[C@@H](CCC(=O)O)C(N)=O [Compound R3023] (Ac-YPYC[Phg][Trp(7-aza)][Tle]E[Nva]NY[Nva]E-NH2)

>  <testedSystem>
C5 (Homo sapiens)

>  <className>
criterion not met

$$$$
>  <compound>
CCC[C@H](NC(C)=O)C(=O)N[C@@H](CS)C(=O)N[C@@H](Cc1ccc(O)cc1)C(=O)N[C@@H](CCC(=O)O)C(=O)N[C@@H](CC(N)=O)C(=O)N[C@H](C(=O)N[C@@H](Cc1ccc(O)cc1)C(=O)N[C@@H](Cc1c[nH]c2ncccc12)C(=O)N[C@@H](CCC(=O)O)C(=O)N[C@@H](Cc1ccc(O)cc1)C(=O)N1CCC[C@H]1C(=O)N[C@H](C(=O)N1CCC[C@H]1C(N)=O)c1ccccc1)C(C)(C)C [Compound R3003] (Ac-[Nva]CYEN[Tle]Y[Trp(7-aza)]EYP[Phg]P-NH2)

>  <testedSystem>
C5 (Homo sapiens)

>  <className>
criterion met

$$$$
